Target: STK17B (human) (UniProt O94768)
Sequence (O94768 whole entry, looked up): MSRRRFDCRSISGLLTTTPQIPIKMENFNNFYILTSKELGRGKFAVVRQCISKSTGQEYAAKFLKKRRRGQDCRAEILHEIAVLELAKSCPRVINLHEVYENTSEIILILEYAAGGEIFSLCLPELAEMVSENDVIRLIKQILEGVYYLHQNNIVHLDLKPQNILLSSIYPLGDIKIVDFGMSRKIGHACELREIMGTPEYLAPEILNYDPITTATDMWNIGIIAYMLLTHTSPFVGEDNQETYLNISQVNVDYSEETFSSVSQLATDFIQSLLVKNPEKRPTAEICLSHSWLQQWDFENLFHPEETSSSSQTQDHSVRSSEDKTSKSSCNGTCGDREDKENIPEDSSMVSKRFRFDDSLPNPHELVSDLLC
Experiment: KINOMEscan competition binding
Details: compound 10.0 µM
Recorded endpoint: kinase still bound, per cent of control (%)
Your answer is read as %, so omit the unit and give the number.

Use these answered entries as a reference point.
INSERT INTO assay_data (chemical_structure, unit_text, test_result) VALUES
  ('O=C(Nc1cccc(Nc2ncc(Br)c(NCCc3cnc[nH]3)n2)c1)N1CCCC1', '%', 2.4),
  ('C[C@@H](Oc1cc(-c2cnn(C3CCNCC3)c2)cnc1N)c1c(Cl)ccc(F)c1Cl', '%', 100),
  ('C=CC(=O)Nc1cc(-n2c(=O)ccc3cnc4ccc(-c5cn[nH]c5)cc4c32)ccc1C', '%', 100),
  ('COc1cc2ncn(-c3cc(OCc4ccccc4C(F)(F)F)c(C(N)=O)s3)c2cc1OC', '%', 85),
  ('COc1cc(N2CCN(C)CC2)ccc1Nc1ncc2c(n1)N(C)c1ccccc1C(=O)N2C', '%', 100),
  ('O=C1NC(=O)/C(=C/c2ccc3nccc(-c4ccncc4)c3c2)S1', '%', 0.6);

Kindly note the recorded kinase still bound, per cent of control for N#CCNC(=O)c1ccc(-c2ccnc(Nc3ccc(N4CCOCC4)cc3)n2)cc1 , which is 2.6

Kindly note the recorded kinase still bound, per cent of control for Cc1n[nH]c2ccc(-c3cncc(OC[C@@H](N)Cc4c[nH]c5ccccc45)c3)cc12 , which is 20
